The entries below come with measured TGI values attached.
Test system: NCI-H226 lung
Experiment: NCI tumour cell line growth inhibition, 48 h
Recorded endpoint: TGI

molecule=COc1ccc2c(c1)[C@@]13CCN4CC5=CCO[C@H]6CC(=O)N2[C@H]1[C@H]6[C@H]5C[C@H]43 target_system="NCI-H226 lung" result="30.9 µM"
molecule="COCC(=O)OC1CCn2c1nc1c2C(=O)C(C)=C(NC(C)=O)C1=O (stereo not drawn)" target_system="NCI-H226 lung" result="23.5 µM"
molecule=CC1(C)CCc2cc3c(cc2O1)OCCC3=O target_system="NCI-H226 lung" result="> 100 µM"
molecule="CCOC1NC(=O)c2ccccc21 (stereo not drawn)" target_system="NCI-H226 lung" result="> 100 µM"
molecule=COc1cc(/C=C/c2cc(=O)cc(/C=C/c3ccc(O)c(OC)c3)o2)ccc1O target_system="NCI-H226 lung" result="98.3 µM"
molecule="CC1OC(n2cc(F)c(=O)[nH]c2=O)C(O[Si](C)(C)C(C)(C)C)C1O[Si](C)(C)C(C)(C)C (stereo not drawn)" target_system="NCI-H226 lung" result="31.1 µM"
molecule="Cc1cn(C2CC(OC(c3ccccc3)(c3ccccc3)c3ccccc3)C(COC(c3ccccc3)(c3ccccc3)c3ccccc3)O2)c(=O)[nH]c1=O (stereo not drawn)" target_system="NCI-H226 lung" result="88.7 µM"
molecule=CCN(CC(=O)O)CC(=O)O target_system="NCI-H226 lung" result="> 100 µM"
molecule=O=CN(O)CC(=O)O target_system="NCI-H226 lung" result="> 100 µM"
molecule=COc1cc2nc(-c3c(F)cccc3F)n(Cc3c(F)cccc3F)c2cc1Cc1c(F)cccc1F target_system="NCI-H226 lung" result="> 100 µM"
molecule="CC(C)(C)C1(O)Cc2ccccc2C(=O)O1 (stereo not drawn)" target_system="NCI-H226 lung" result="> 100 µM"
molecule=CNC(=O)c1ccc(-c2cnc3ncc(Cc4ccc5ncccc5c4)n3n2)cc1F target_system="NCI-H226 lung" result="> 100 µM"
molecule="CC1CCCC(C(=O)/C(=C/c2cccc(Cl)c2)C(=O)C(=O)O)C1 (stereo not drawn)" target_system="NCI-H226 lung" result="> 100 µM"
molecule=CCOC(=O)[C@@H](C)C[C@H](Cc1ccccc1)NC(=O)c1csc([C@@H](C[C@H](C(C)C)N(C)C(=O)[C@@H](NC(=O)[C@H]2CCCCN2C)C(C)(C)C)OC(C)=O)n1 target_system="NCI-H226 lung" result="0.104 µM"
molecule=O=C(/C=C1\C[C@H]2C=Nc3ccccc3C(=O)N2C1)NCCCCCNC(=O)/C=C1\C[C@H]2C=Nc3ccccc3C(=O)N2C1 target_system="NCI-H226 lung" result="> 70.4 µM"
molecule=CS(=O)(=O)Nc1ccc(-c2ccc3c(NC(=O)C4CC4)n[nH]c3c2)cc1 target_system="NCI-H226 lung" result="> 25 µM"
molecule=CCOC(=O)/C(=C/c1ccco1)P(=O)(OCC)OCC target_system="NCI-H226 lung" result="> 100 µM"
molecule=CN(C)C(=S)/N=c1\ss/c(=N\S(=O)(=O)c2ccccc2)n1-c1ccccc1 target_system="NCI-H226 lung" result="> 100 µM"
molecule=CC(C)(C)c1nc2c(o1)C(=Nc1ccc(F)cc1)c1ccccc1C2=O target_system="NCI-H226 lung" result="34.3 µM"
molecule="COc1ccc(N2C(=O)C3c4[nH]c5ccccc5c4C4C(C)CCCC4C3C2=O)cc1 (stereo not drawn)" target_system="NCI-H226 lung" result="> 100 µM"
molecule=CC1=C(C(=O)NNC(=O)CC#N)CC(C(=O)NNC(=O)CC#N)=C(C)N1 target_system="NCI-H226 lung" result="> 100 µM"
molecule=Cc1cccc(NC(Nc2cccc(C)c2)=C(C(Cl)=C(Cl)Cl)[N+](=O)[O-])c1 target_system="NCI-H226 lung" result="22.5 µM"
molecule=Cc1ccc([N+](=O)[O-])c2c(NCCCN(C)C)ccnc12 target_system="NCI-H226 lung" result="> 100 µM"
molecule="COC(=O)C(CCCCNC(=O)CNC(=O)OCc1ccccc1)NC(=O)C(CCCCNC(=O)CNC(=O)OCc1ccccc1)NC(=O)OCc1ccccc1 (stereo not drawn)" target_system="NCI-H226 lung" result="> 100 µM"
molecule="CCOC(=O)C(NC(=O)c1ccc(N=NN(C)C)cc1)C(C)C (stereo not drawn)" target_system="NCI-H226 lung" result="> 100 µM"
molecule=CC(=O)[CH-]C(C)=O.CC(=O)[CH-]C(C)=O.N=CC=N.[Sn+2] target_system="NCI-H226 lung" result="23 µM"
molecule=CC(C)Cc1c(C#N)c(C#N)c(N)n1Cc1ccccc1 target_system="NCI-H226 lung" result="> 100 µM"
molecule=COC(=O)c1cc(C(=O)OC)cc(-c2ccc3c(c2)-c2nc4c(c(-c5ccc(OC)cc5)c2CC3)CCc2ccc(-c3cc(C(=O)OC)cc(C(=O)OC)c3)cc2-4)c1 target_system="NCI-H226 lung" result="> 100 µM"
molecule=COc1cc(-c2cn(C)c(=O)c(C)c2C)cc(OC)c1CN1CC[C@H](N2CCN(c3ccc(N[C@H]4CCC(=O)NC4=O)cc3F)CC2)C(F)(F)C1 target_system="NCI-H226 lung" result="29.1 µM"
molecule="COC(=O)c1cc2c3c(cc(NCCN)c2[nH]1)N(C(=O)c1cc2cc(OC)c(OC)c(OC)c2[nH]1)CC3CCl (stereo not drawn)" target_system="NCI-H226 lung" result="0.178 µM"
molecule=Cc1c(C(=O)NN)nnn1-c1ccnc2c(C(F)(F)F)cccc12 target_system="NCI-H226 lung" result="> 100 µM"
molecule=O=c1c2cc3c(=O)n(CCc4ccccc4CO)c(=O)c3cc2c(=O)n1CCc1ccccc1CO target_system="NCI-H226 lung" result="> 100 µM"
molecule=O=P(O)(O)C(O)(Cn1ccnc1)P(=O)(O)O target_system="NCI-H226 lung" result="> 100 µM"
molecule=CCCCCC(=O)Oc1ccc(/C(=C(\C)c2ccc(OC)cc2)c2ccc(OCCN3CCCCC3)cc2)cc1 target_system="NCI-H226 lung" result="38.4 µM"
molecule=CC1(C)OC(=O)C=C([O-])O1.CC1(C)OC(=O)C=C([O-])O1.O=c1c(O)c(-c2ccc([O-])cc2[O-])oc2cc(O)cc(O)c12.[Ti+4] target_system="NCI-H226 lung" result="> 100 µM"
molecule=C=CC(=O)N1CCN(c2ncnc3c(F)c(-c4c(O)cccc4F)c(Cl)cc23)CC1 target_system="NCI-H226 lung" result="46.2 µM"
molecule="COc1ccc(C2C(C#N)=C(N)OC3=C2CCCc2ccc(F)cc23)cc1OC (stereo not drawn)" target_system="NCI-H226 lung" result="43.9 µM"
molecule=COc1ccccc1C(=O)c1ccc2ccccc2c1 target_system="NCI-H226 lung" result="> 100 µM"
